B1: SMG5 (parent)
chain: TRKLSPGKKRCKDIKRLLVNFMYL

Variants of: B1
TEST PROTOCOL: protein stability index of a GFP-peptide fusion (GPS, HEK-293T) (PSI 1-6); higher = more stable;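 note: lentivirally expressed fusions sorted by FACS into six bins by GFP to DsRed ratio, PSI derived from sequencing read proportions per bin multiplied by bin number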
RUN PARAMETERS: c terminus: a fixed tail appended
Please respond with reported protein stability index for every item in the list.
Give bare numbers.

G7M: 3.1
L18G: 2.35
K8N: 1.74
T1S: 3.96

I need protein stability index for every entry listed below, if you could help.
1. R10E
2. L24F

A:
[2.67, 2.53]

Hey, just so you know, these numbers are from the supplement of paper PMC10567573.
